test system: HL-60(TB) leukemia; assay: NCI tumour cell line growth inhibition, 48 h
Measure name: TGI (µM)
Enter your answer as a number in µM; do not include the unit.

Record excerpt, results attached:
COc1ccc([C@H]2[C@@H]3CCc4ccccc4C3=NN2C(N)=S)cc1OC    54.8
O=C1/C(=C/c2ccc([N+](=O)[O-])cc2)Sc2scc(-c3cccc([N+](=O)[O-])c3)[n+]21    1.07
C=CC(=O)N1CCC(CNc2ncnc(N)c2-c2ccc(Oc3ccccc3)cc2)CC1    46.4

Then this compound:
What TGI value was documented for this compound, O=C1CCCc2cc3c(cc21)CC1(C3)Cc2cc3c(cc2C1)C(=O)CCC3 ?
4.6

----------
Measured TGI values are reported for all entries that follow.
tested on: MOLT-4 leukemia; test: NCI tumour cell line growth inhibition, 48 h
Where a SMILES comes first, the peptide text is derived from it. [ ]: non-standard residue; d: D form. The star is where a group is joined. Hyp = O=C(O)[CH]1C[CH](O)CN1; Cbz = O=C(OCc1ccccc1)*

COc1ccc(-n2nc(C(=O)c3ccccc3)c3nn4c(=O)cc(-c5ccccc5)nc4nc32)cc1    > 100 µM
Cc1cc(=O)[nH]c(Sc2ccc([N+](=O)[O-])cc2[N+](=O)[O-])n1    > 100 µM
CCOC(=O)c1cccc(N=Nc2ncc(/C=C/C(=O)OC)[nH]2)c1    28.9 µM
COc1ccc2c3c([nH]c2c1)[C@H](C=C(C)C)N1C(=O)[C@@H]2CCCN2C(=O)[C@@H]1C3    > 100 µM
COc1cc(/C=C/C(=O)N[C@@H]2C(=O)N3[C@@H]2SC(C)(C)[C@@H]3C(=O)O)ccc1O    > 100 µM
CCCCCCCCCCCCCCCCCCOC(COP(=O)(O)OCC1OC(n2cc(F)c(=O)[nH]c2=O)CC1O)COP(=O)(O)OCC1OC(n2ccc(N)nc2=O)C(O)C1O (stereo not drawn)    > 79.8 µM

Given the entry NC(=O)CNC(=O)C1CC(O)CN1C(=O)C1CCCN1C(=O)OCc1ccccc1 (stereo not drawn) (Cbz-Pro-[Hyp]-Gly-NH2; configuration not given here) , report its measured TGI.
> 100 µM

Fill blank: measured TGI of the compound O=C1CCCc2cc3c(cc21)CC1(C3)Cc2cc3c(cc2C1)C(=O)CCC3 is ____.
> 43.1 µM

----------
The following compounds are listed with their measured TGI values.
system: TK-10 renal; assay: NCI tumour cell line growth inhibition, 48 h

Please review the following examples before continuing.
CCC1C[N+]2=C(c3cc(OC)c(OC)cc3CC2)c2c1cc1n2CCc2cc(OC)c(OC)cc2-1 (stereo not drawn)    21.1 µM
Clc1cccc(/C=c2\nc(-c3ccccc3)n3c2nc2ccccc23)c1    > 100 µM
COC(OC)[C@@H]1OC[C@H](n2ccc(=O)[nH]c2=O)[C@H]1O    > 100 µM
CCCCCCCCCCCCCC/C(C(=O)O)=C(\C)C(=O)O    > 100 µM
Nc1ncnc2c1N=CN(Oc1ccccc1)N2    > 100 µM

Would you kindly share the measured TGI for O=C(/C=C/c1ccc(O)c(O)c1)O[C@H]1CCCC[C@@H]1OC(=O)/C=C/c1ccc(O)c(O)c1 ?
57.7 µM

Form field: reported TGI of COc1ccccc1CNC(=O)/C=C/c1ccc(O)c(O)c1
> 100 µM

Fill in: TGI of Nc1n[nH]c2cc(F)c([C@@H]3Nc4c(F)cc5[nH]ncc5c4[C@H]4C5CCC(C5)[C@@H]34)cc12 (stereo partly drawn) is ___
27.2 µM

----------
test system: OVCAR-4 ovarian; experiment: NCI tumour cell line growth inhibition, 48 h
Each entry below carries its recorded TGI.

Worked set:
C#C[C@]1(O)[C@@H](CO)O[C@@H](n2ccc(=O)[nH]c2=O)[C@@H]1O    45.3 µM
COc1ccc(C#CC2=C(Br)C(=O)OC2)cc1    11.4 µM
C[C@@H]1C[C@@H]2C(=O)N(c3ccccc3)C(=O)[C@@H]2c2[nH]c3ccc(Br)cc3c21    57.9 µM
CCOC(=O)CC1C(CNC(=O)NC)OC(n2cnc3c(NC(=O)Nc4ccccc4)ncnc32)C1O[Si](C)(C)C(C)(C)C (stereo not given)    > 100 µM

We next turn to a different molecule, shown below.
# returns recorded TGI (system: OVCAR-4 ovarian) for CCN(CC)CCOc1ccccc1-n1c(C)ccc1-c1ccccc1
25.7 µM

----------
system: HCT-15 colon; experiment: NCI tumour cell line growth inhibition, 48 h; in the data active = GI50 below about 0.43 µM; inactive = the rest
Assign a class; possible classes are 1 (yes) (active), 0 (no) (inactive)

Consider the following illustrative entries.
CC(C)CCCC(C)[C@H]1CCC2C3CC=C4C[C@@H](OC(=O)CC(CC(=O)[O-])C(=O)[O-])CC[C@]4(C)C3CC[C@@]21C.N.N.[Pt+4] (some centres undefined)    0 (no)
Cc1nc2sc(C(=O)Nc3cccc(Cl)c3C)c(N)c2cc1C(O)c1ccccc1 (centres undefined)    1 (yes)
NC1=C(/C(N)=N/O)C(c2ccccc2)c2ccc3ccccc3c2O1 (centres undefined)    1 (yes)

Which outcome did this test record for the molecule CC1(C)CC(C(=O)OCCCCCCCCCCC[P+](c2ccccc2)(c2ccccc2)c2ccccc2)C(C)(C)N1O (centres undefined) ?
0 (no)

----------
tested on: HCT-116 colon; experiment: NCI tumour cell line growth inhibition, 48 h; in the data active = GI50 below about 0.43 µM; inactive = the rest
Assign a class; possible classes are YES (active), NO (inactive)

CCOC(=O)CCCOc1cc(-c2ccccc2F)nc2cc3c(cc12)OCO3    NO

How was CCN1Cc2c(/C=C/c3ccccc3)nc3ccc(OC)cc3c2N(c2cccc(Cl)c2)C1 classified in this test?
NO

Recorded test call requested for CCC1C[N+]2=C(c3cc(OC)c(OC)cc3CC2)c2c1cc1n2CCc2cc(OC)c(OC)cc2-1 (configuration not stated)
NO

Could you check what this test reported for COc1ccccc1CNC(=O)/C=C/c1ccc(O)c(O)c1 ?
NO

Which outcome did this test record for the molecule CCN(CC)CCOc1ccccc1-n1c(C)ccc1-c1ccccc1 ?
NO

Record lookup: outcome of this test for NCCNc1nc2ccc(F)cc2c2c(=O)c3cc(F)ccc3sc12 ?
NO

Please state the recorded outcome for this molecule: COc1ccc(C(=O)c2cc(C)c(OC)c(C)c2)c(OC)c1OC(=O)C(Cl)Cl
YES

----------
test system: MDA-N; assay: NCI tumour cell line growth inhibition, 48 h
Entries and their measured TGI follow.

COc1cc([N+](=O)[O-])cc2c1NC(=O)C2(C)SC (stereo unspecified)    > 100 µM

Would you kindly share the measured TGI for CCOC(=O)n1ccc2c(C(=O)OC)c(C(=O)OC)cc(/C(=C/C(=O)OC)C(=O)OC)c21 ?
> 100 µM

Consider the molecule N#Cc1n[nH]n(-c2ccccc2)c1=O and give its measured TGI.
> 100 µM

What does the data say about its TGI? Entry: Cn1c(=O)c2[nH]c(CCS)nc2n(C)c1=O
> 100 µM

Give the measured TGI of CCOC(=O)/C=C(/C(=O)OCC)n1cc(C)c(=O)[nH]c1=O .
17.7 µM

Which TGI is reported for this molecule? CN(CCCN1CCCC1)CCCN(C)C(=O)Cc1ccc(Cl)c(Cl)c1
16 µM

----------
tested on: SNB-75 CNS; assay: NCI tumour cell line growth inhibition, 48 h
Measure name: TGI

Consider the following illustrative entries.
Nc1n[nH]c2cc(F)c([C@@H]3Nc4c(F)cc5[nH]ncc5c4[C@H]4C5CCC(C5)[C@@H]34)cc12 (some centres undefined)    0.635 µM
COC(=O)C(Cc1ccccc1)NP(=O)(O)OCC1OC(n2ccc(N)nc2=O)C(O)C1O (centres undefined)    > 100 µM
O=C1c2ccccc2-c2c1c1ccc([N+](=O)[O-])cc1c(=O)n2CCN1CCOCC1    > 100 µM
CC(C)=CC1(C)/C(=N\O)C(C)(CC(C)C)C(=O)N1O (centres undefined)    > 100 µM
COC(OC)[C@@H]1OC[C@H](n2ccc(=O)[nH]c2=O)[C@H]1O    > 100 µM
O=c1oc2ccccc2c(O)c1Cc1ccccc1Cc1c(O)c2ccccc2oc1=O    > 100 µM
COC(=O)c1ccc(N/C=C(/C#N)c2ccsc2)cc1    18.9 µM
Cc1ccc([N+](=O)[O-])cc1S(=O)(=O)Nc1ccc(C2=NN(C(=O)c3ccccc3)C(c3ccccc3O)C2)cc1 (centres undefined)    41.4 µM

Consider now this further compound.
Field request: TGI | item: Clc1ccc(C2=Cc3nc2c(-c2ccccc2)c2ccc([nH]2)c(-c2ccccc2)c2nc(c(-c4ccccc4)c4ccc([nH]4)c3-c3ccccc3)C=C2)cc1
> 62.5 µM

----------
tested on: OVCAR-3 ovarian; assay: NCI tumour cell line growth inhibition, 48 h
Property: TGI; scope: individual compounds

For orientation, consider the following solved cases.
CCOC(=O)C1=C(Nc2cccc3ccccc23)OCC1=O    > 100 µM
NC(=S)NN=C1Cc2ccccc2C1    > 100 µM
O=C(O)c1ccc2[nH]c(=O)oc2c1    > 100 µM
CCOC(=O)c1cccc(N=Nc2ncc(/C=C/C(=O)OC)[nH]2)c1    71.1 µM
NC(=S)N/N=C(/CCN1CCCC1)CC(C1=C(O)C2=CCCCC2OC1=O)c1ccccc1 (stereo unspecified)    > 100 µM

Look up TGI for this compound: CCC12CN(C(=O)OC)C3C(Br)C1CCC(=O)C32 (stereo unspecified)
> 100 µM

Which value of TGI has been reported for CN1CCC(n2cnc(-c3ccc(F)cc3)c2-c2ccnc(Nc3ccccc3)n2)CC1 in the records?
> 25 µM

Return reported TGI; argument: COc1ccccc1CNC(=O)/C=C/c1ccc(O)c(O)c1
> 100 µM

// query TGI value for entry C#C[C@@H](OC(=O)c1ccc([N+](=O)[O-])cc1)[C@@H]1C[C@H]2O[C@@H]([C@H](C/C=C/CC)OC(=O)c3ccc([N+](=O)[O-])cc3)C[C@H]2O1
> 100 µM

Fill blank: measured TGI of the compound C/C(=N\NC(N)=S)C(CN1CCCCC1)C(C1=C(O)c2ccccc2OC1)c1ccccc1 (stereo unspecified) is ____.
> 100 µM

Consider the compound CC1=C(C(=O)NCc2ccccc2)C(c2ccc(N(C)C)cc2)C(C(=O)NCc2ccccc2)=C(C)N1 and give its measured TGI.
> 100 µM
